- assayExplanation: HepG2 cytotoxicity, primary screen, cytotoxicity control for P. falciparum antimalarial project, cell-based, ATP luminescence (AID 2303);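 note: 0% = DMSO wells and 100% = digitonin-killed cells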
- experimentalContext: HepG2 viability, 24-48 h, at 10 µM, active compounds read high
Here, each record is paired with measured inhibition data.
Write the number in % without appending the unit.

Examples with their reported inhibition follow.
# smi, unitOfMeasure, inhibition
rows = [
    ("O=C(C=Cc1ccc(Cl)c(Cl)c1)NCCCCCN1CCC(CCCNS(=O)(=O)c2cccc(C(F)(F)F)c2)CC1", "%", 99),
    ("CS(=O)(=O)Nc1ccc(OCCCCCCOc2ccc(NS(C)(=O)=O)cc2)cc1", "%", 3),
]

Next item in the queue.
Q: Give its inhibition value. Item: Cc1cccc2[nH]c(-c3ccc(-c4ccc(CN5CCC(CCN6CCCCC6)CC5)cc4)cc3)nc12
Result: 99

Provenance of the data: PubChem BioAssay
